test system: Mycobacterium tuberculosis; experiment: Antimycobacterial activity Mycobacterium tuberculosis H37Rv assessed as growth inhibition measured at day 7 by broth microdilution method; format: functional; settings: 168 h
measure: MIC99 (µM)
Write the number in µM without appending the unit.

Query: Need MIC99 of COc1cc(NC(C)CCCNC(c2ccc(CO[C@@H]3COc4nc([N+](=O)[O-])cn4C3)cc2)c2nnnn2C(C)(C)C)c2ncccc2c1 (stereo not given in full) , thanks.
Result: 0.625

Query: Need MIC99 of CCN(CC)C(c1ccc(CO[C@@H]2COc3nc([N+](=O)[O-])cn3C2)cc1)c1nnnn1C(C)(C)C (stereo not given in full) , thanks.
Result: 0.313

Query: Need MIC99 of COc1cc(NC(C)CCCN)c2ncccc2c1 (stereo not given) , thanks.
Result: 80

Query: Need MIC99 of O=[N+]([O-])c1cn2c(n1)OC[C@@H](O)C2 , thanks.
Result: 40

Query: Need MIC99 of CN(C)C(c1ccc(CO[C@@H]2COc3nc([N+](=O)[O-])cn3C2)cc1)c1nnnn1C(C)(C)C (stereo not given in full) , thanks.
Result: 0.625

Query: Need MIC99 of CN[C@@H]1[C@H](O[C@H]2[C@H](O[C@H]3[C@H](O)[C@@H](O)[C@H](N=C(N)N)[C@@H](O)[C@@H]3N=C(N)N)O[C@@H](C)[C@]2(O)C=O)O[C@@H](CO)[C@H](O)[C@H]1O , thanks.
Result: 0.27

====

test system: Plasmodium falciparum; test: Antimalarial activity against Plasmodium falciparum K1 assessed as inhibition of [3H] hypoxanthine uptake by liquid scintillation counting; format: functional, organism-based
pIC50: −log10 of the molar value.
pIC50 below 6 gives f; pIC50 at or above it gives t.

| molecule | category label |
| --- | --- |
| O=Cc1cccc(CO[C@@H]2COc3nc([N+](=O)[O-])cn3C2)c1 | f |

Query: Confirm if pIC50 reported for the molecule CCN(CC)C(c1ccc(CO[C@@H]2COc3nc([N+](=O)[O-])cn3C2)cc1)c1nnnn1C(C)(C)C (stereo not given in full) is 6 or above.
Result: f

Query: Confirm if pIC50 reported for the molecule CN(CCO)CCCNc1ccnc2cc(Cl)ccc12 is 6 or above.
Result: t

====

Listed below: IC50 values for each entry.
system: Plasmodium falciparum; test: Antimalarial activity against Plasmodium falciparum K1 assessed as inhibition of [3H] hypoxanthine uptake by liquid scintillation counting; assay type: functional, organism-based

| compound | system name | assay value |
| --- | --- | --- |
| COc1cc(NC(C)CCCN)c2ncccc2c1 (configuration not stated) [PRIMAQUINE] | Plasmodium falciparum | 0.643 µM |
| CC(C)(C)n1nnnc1C(NCCCCNc1ccnc2cc(Cl)ccc12)c1ccc(CO[C@@H]2COc3nc([N+](=O)[O-])cn3C2)cc1 (some centres not stated) | Plasmodium falciparum | 0.164 µM |
| CC(C)(C)n1nnnc1C(NCCCNc1ccnc2cc(Cl)ccc12)c1ccc(CO[C@@H]2COc3nc([N+](=O)[O-])cn3C2)cc1 (some centres not stated) | Plasmodium falciparum | 0.485 µM |

Query: Need IC50 of CC(C)(C)n1nnnc1C(c1ccc(CO[C@@H]2COc3nc([N+](=O)[O-])cn3C2)cc1)N1CCCC1 (some centres not stated) , thanks.
Result: 8.7 µM

Query: Need IC50 of CN(C)C(c1ccc(CO[C@@H]2COc3nc([N+](=O)[O-])cn3C2)cc1)c1nnnn1C(C)(C)C (some centres not stated) , thanks.
Result: 15.8 µM

Query: Need IC50 of COc1cc(NC(C)CCCNC(c2ccc(CO[C@@H]3COc4nc([N+](=O)[O-])cn4C3)cc2)c2nnnn2C(C)(C)C)c2ncccc2c1 (some centres not stated) , thanks.
Result: 2.04 µM

Query: Need IC50 of NCCNc1ccnc2cc(Cl)ccc12 , thanks.
Result: 0.298 µM

Query: Need IC50 of O=[N+]([O-])c1cn2c(n1)OC[C@@H](OCCCNc1ccnc3cc(Cl)ccc13)C2 , thanks.
Result: 10.5 µM

Query: Need IC50 of O=[N+]([O-])c1cn2c(n1)OC[C@@H](O)C2 , thanks.
Result: > 270 µM

Query: Need IC50 of CN(CCO)CCNc1ccnc2cc(Cl)ccc12 , thanks.
Result: 0.078 µM

Query: Need IC50 of CC(C)(C)n1nnnc1C(NCCNc1ccnc2cc(Cl)ccc12)c1ccc(CO[C@@H]2COc3nc([N+](=O)[O-])cn3C2)cc1 (some centres not stated) , thanks.
Result: 0.1 µM

Query: Need IC50 of OCCCNc1ccnc2cc(Cl)ccc12 , thanks.
Result: 1.09 µM
